The values you see were collected from the supplement of paper PMC9170038.

I'd appreciate it if you could supply apparent KD of K4 kissing-loop reporter values for the items below.
Tested on: K4 kissing-loop RNA reporter;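 also: bound reporter read as fluorescence of individual clusters on recovered sequencing chips by microscopy, with normalized cluster intensities fitted with a binding model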
Assay: apparent KD of K4 kissing-loop reporter; higher = weaker reporter binding
Conditions: Eterna round: R107; input ligand: none
Provide the reading as a plain figure in nM.

Summary line: AUAGGCUAGCGAAACGCUAGCCUAACAGAUACCAGUCGCGAAAGCGACCCUUGGCAGCUGCUGAGUGAUGUUCAGGUGAAUGAAU , K4 kissing-loop RNA reporter, reported apparent KD of K4 kissing-loop reporter = 418

Summary line: CCGGCCCGGCCGGAUACCAGUGCGCCGCAGGGAACGGCGGGCCCAGAGUGAUGUUCGGGACACCCUUGGCAGCCGCCUGGGUCGC [#2 Same State - Theophylline B Attempt #27 (HarryS)] , K4 kissing-loop RNA reporter, reported apparent KD of K4 kissing-loop reporter = 231

Summary line: GGAGUCCCGUUAGAUUGUGUAGAUACAAGACGAGGACCGGUACGGCCGCCACUCGCCAUCGUCCAGUGAUGUUGGGCGUCACGGG [theeternabot_sameState_KL_Trp_A_30] , K4 kissing-loop RNA reporter, reported apparent KD of K4 kissing-loop reporter = 235

Summary line: GGAUUUGAAAGUGAGUGAUGUUCAUGUUGUGAGGAUAUGUAGAGAUAUAGAAGGCACGUUUGUAUUUUUUUUGUGUGAGAUUAAA [Last Minute #1] , K4 kissing-loop RNA reporter, reported apparent KD of K4 kissing-loop reporter = 65.1

Summary line: UGAUACCAGGCGGCCGCCACUCCUACAGGUCAAAGACCUGUAAAGCUGGUUCUCCAGUGAUGUUGGAGGACCGGGCCUGGUAUCU [FiskerMod 29 - Jieux - Exclusion - Tryptophan B] , K4 kissing-loop RNA reporter, reported apparent KD of K4 kissing-loop reporter = 179

Summary line: GGGAUAGGAUCAGUGAUGUUGGUCCCAGAUACCAGACAAAGUCACGUCCCUUGGCAGCUGAUGAUCGCUGACGACCGGCCUCCAA [theeternabot_sameState_KL_Theo_A_7] , K4 kissing-loop RNA reporter, reported apparent KD of K4 kissing-loop reporter = 262

Summary line: UCGGACCCUGGAGGAUAUGAGUCGAGUGAUGUUCGGCGGUCCAUGCCGAUGCGGCGUUAUGCCCUUUUAGAAGGCCAGGGUCCGA [#2 Exclusion - FMN B Attempt #10 (HarryS)] , K4 kissing-loop RNA reporter, reported apparent KD of K4 kissing-loop reporter = 277

Summary line: UAUUUAGUGACGGCCGCCACUAUUGUGAUUUAAUUGUUUGAGUGAUGUUUUGAUGUUUGAUUUUGUAGGACCGGGUUAUGUGUUA [tyttmullin] , K4 kissing-loop RNA reporter, reported apparent KD of K4 kissing-loop reporter = 827

Summary line: CCAUCGCUAUUCGAUACCAGCUACUUAGUGAUGUUAAGUUUUUACCCACUGUAGGUGGGAAGCCCUUGGCAGCGAAUAGUGAUGG [Theophylline B K4 27] , K4 kissing-loop RNA reporter, reported apparent KD of K4 kissing-loop reporter = 239

Summary line: UGAUACCAGACUGAUACCAGCCACAGAGUCAAAGACUCUGAUAAAGGUACCAGUGAUGUUGGCCCUUGGCAGCAGUCUGGUAUCU [TheoBX 17 #SwitchBubble #StaticStem] , K4 kissing-loop RNA reporter, reported apparent KD of K4 kissing-loop reporter = 143

Summary line: AAUAAUAAUAAAUAUAGAUUGAUGAGCAAACGAGGACCGGUACGGCCGCCACUCGAGUGAUGUUCGAGAAGCUCAUCAAUCAUAA [AK4.6 Exc Tryptophan A] , K4 kissing-loop RNA reporter, reported apparent KD of K4 kissing-loop reporter = 141
